Experiment: Human HepG2 cell viability assay in 384 well format
Type: toxicity, cell-based
Set-up: dose 125 nL, time 70.5 hour; concentration not given beside the values
Details: HepG2 cells, read-out: Inhibition
Entries and their cytotoxicity at 70.5 h values follow.
value type: cytotoxicity at 70.5 h (%)

- CS(=O)(=O)CCCC(=O)Nc1cc(Cl)c(Cl)cn1: 0.966
- OCCC1CN(c2nc(-c3cccnc3)nc3c2CCNCC3)CCO1 (stereo not drawn): -1.49
- COc1ccc(N2CCCC3(C2)CN(c2ncccn2)CCO3)cc1 (stereo not drawn): -2.45

* * *

Assay: Human HepG2 cell viability assay in 384 well format
Type: toxicity, cell-based
Design: dose 125 nL, time 70.5 hour; concentration not given beside the values
Settings: HepG2 cells, read-out: Inhibition
value type: cytotoxicity at 70.5 h (%)

* O=C(CCN1CCOCC1)N1CCC(Cc2ccc(CO)cc2)C1 (stereo unspecified) | -2.12
* O=C(c1ccco1)N1CCC2(CCC(=O)N2Cc2ccccc2)CC1 | -11.1
* CCC(C(=O)NCC1CCN(c2ccncc2)CC1)N(C)C (stereo unspecified) | -7.96
* Cc1nnc(CN2CCOC(c3ccc(Cl)cc3)C2)o1 (stereo unspecified) | 0.631
* O=C(N[C@@H]1CN(Cc2ccoc2)C[C@@H]2CCCO[C@@H]21)C1CCC1 | -11.2
* CC(=O)N1CCc2nc(N(C)C)nc(NCCc3ccccc3)c2CC1 | -9.06
* CCCN(C(=O)CNC1CCc2ncnn2C1)C1=CCCCC1 (stereo unspecified) | -10.9
* CCc1csc(C2CCCN(C(=O)c3ccco3)C2)n1 (stereo unspecified) | 17.1
* COc1nc(C)c(C(=O)N2CCc3[nH]nc(Cc4ccccc4)c3C2)s1 | -1.57
* CCn1c(C2CCCN(C(=O)C(C)(C)OC)C2)nn(CCN(C)C)c1=O (stereo unspecified) | -1.55
* CCOCCNC(=O)Cc1cccc(I)c1 | 0.854
* O=C1NCC2(CCCN(C(=O)c3ccc4c(c3)CCCO4)CC2)O1 (stereo unspecified) | 4.55
* CCc1cnc(C)nc1NC(CC)c1ncnn1CC (stereo unspecified) | -5.6
* Cc1n[nH]cc1CNC1CCN(c2cccc(C(F)(F)F)c2)CC1 | 2.2
* CCS(=O)(=O)N1C[C@@H](O)[C@H](Oc2cccc(F)c2)C1 | -9.71
* CC1(C)Oc2ccc(S(=O)(=O)NCCCn3ccnc3)cc2NC1=O | 28.6
* CC1CNC(=O)CCN1Cc1cc(O)c2cccc(F)c2n1 (stereo unspecified) | -6.4
* Cc1nnc(NCc2cccnc2N(C)C)c(C#N)c1C | 2.49
* Nc1ccc(-c2cc(O)cc(CCC3CCCCN3)c2)cn1 (stereo unspecified) | -5.09
* N#Cc1cccc(CN2CCC3(CC(C(=O)NCC4CC4)=NO3)C2)c1 (stereo unspecified) | -4.48
* O=C(c1ccncc1)N1CCN(c2ccc(F)cc2Cl)CC1 | 18.4
* N#CCCN(CCC#N)C(=O)c1ccc(OCC2CC2)cc1 | -7.55
* CSc1nccn1-c1cccc(C(=O)NCC(F)(F)F)c1 | -0.984
* CCN(CC)CCN(C)c1nc(-c2ccc(Cl)cc2)nc2c1CNC2 | 20.6
* CC(C)Nc1nnc(SCc2nnc(C(C)(C)C)o2)s1 | -6.2
* CCNc1ncc(C(=O)NCCCc2ccncc2)cn1 | -3.04
